target_of_assay: human CRTH2 receptor (Homo sapiens, UniProt Q9Y5Y4)
Construct: host or cells: CHO-K1 (CHO-K1-hCRTH2 cells); membranes prepared in house from the purchased cell line
Sequence (Q9Y5Y4 1-395): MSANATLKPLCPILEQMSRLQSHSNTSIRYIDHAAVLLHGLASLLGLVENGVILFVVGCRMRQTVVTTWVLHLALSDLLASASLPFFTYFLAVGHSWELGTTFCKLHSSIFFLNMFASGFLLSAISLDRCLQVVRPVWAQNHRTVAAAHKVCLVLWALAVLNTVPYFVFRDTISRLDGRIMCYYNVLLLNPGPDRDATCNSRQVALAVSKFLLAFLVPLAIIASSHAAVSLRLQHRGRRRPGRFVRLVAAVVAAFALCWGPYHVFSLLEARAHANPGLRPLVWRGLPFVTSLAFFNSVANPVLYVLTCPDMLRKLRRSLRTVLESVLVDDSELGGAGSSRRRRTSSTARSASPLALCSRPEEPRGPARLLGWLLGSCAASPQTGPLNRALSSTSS
protocol_notes: Human CRTH2 receptor membrane radioligand binding assay (SPA, [3H]-PGD2)
assay_conditions: displacement of [3H]-PGD2 (1 nM) from CHO-K1-hCRTH2 cell membranes, 3 h room temperature
pKi: −log10 of the molar value.
quantity_kind: pKi

Some entries whose results are on file:
compound: Cc1nn(Cc2ccc(NCc3ccc(C(F)(F)F)cc3)cc2)c(C)c1CC(=O)O
target_of_assay: human CRTH2 receptor (Homo sapiens, UniProt Q9Y5Y4)
quantity_kind: pKi
number: 6.58

compound: Cc1nn(Cc2ccc(C(C)Oc3ccccc3)cc2)c(C)c1CC(=O)O (centres unmarked)
target_of_assay: human CRTH2 receptor (Homo sapiens, UniProt Q9Y5Y4)
quantity_kind: pKi
number: 6.37

compound: Cc1c(CC(=O)O)c(-c2ccccc2)nn1Cc1ccc(NC(=O)c2ccc(C(F)(F)F)cc2)cc1
target_of_assay: human CRTH2 receptor (Homo sapiens, UniProt Q9Y5Y4)
quantity_kind: pKi
number: 8.92

compound: Cc1nn(Cc2ccc(NC(=O)NCc3ccccc3)cc2)c(C)c1CC(=O)O
target_of_assay: human CRTH2 receptor (Homo sapiens, UniProt Q9Y5Y4)
quantity_kind: pKi
number: 7.77

(1) Cc1nn(Cc2ccc([S+]([O-])Cc3ccc(Cl)c(Cl)c3)cc2)c(C)c1CC(=O)O (centres unmarked)
(2) CCc1c(CC(=O)O)c(C2CC2)nn1Cc1ccc(NC(=O)c2ccc(C(F)(F)F)cc2)cc1
(3) CCc1nn(Cc2ccc(NC(=O)c3ccc(Cl)cc3Br)cc2)c(CC)c1CC(=O)O
(4) CCc1nn(Cc2ccc(NC(=O)OCc3ccccc3Cl)cc2)c(CC)c1CC(=O)O
input: Order the items by recorded pKi; the first position goes to the largest value. Output the labels ranked as instructed.
output: 2, 3, 4, 1
(2: 10.00, 3: 8.55, 4: 8.28, 1: 7.92)

----------
target_of_assay: human CRTH2 receptor (Homo sapiens)
Construct: membranes prepared in house from the purchased cell line
protocol_notes: Human CRTH2 receptor membrane radioligand binding assay (SPA, [3H]-PGD2)
assay_conditions: displacement of [3H]-PGD2 (1 nM) from CHO-K1-hCRTH2 cell membranes, 3 h room temperature
quantity_kind: Ki (nM)

compound: Cc1c(CC(=O)O)cnn1Cc1ccc(NC(=O)c2ccc3ccccc3c2)cc1 [Example 2.58]
Ki (nM): 24.6
//
compound: Cc1ccc(C(=O)Nc2ccc(Cn3nc(C)c(CC(=O)O)c3C)cc2)c(C)c1
Ki (nM): 12.9
//
compound: CCc1c(CC(=O)O)cnn1Cc1ccc(NC(=O)c2ccc3ccccc3c2)cc1
Ki (nM): 17.4
//
compound: CCc1nn(C(C)c2ccc(C(=O)Nc3ccc(C(F)(F)F)cc3)cc2)c(CC)c1CC(=O)O (stereo not shown)
Ki (nM): 4.3

(I) Cc1nn(Cc2ccc(NC(=O)OCc3ccccc3Br)cc2)c(C)c1CC(=O)O
(II) Cc1nn(Cc2ccc(NC(=O)CCc3ccccc3)cc2)c(C)c1CCC(=O)O
(III) Cc1cc(Cl)ccc1C(=O)Nc1ccc(Cn2nc(C)c(CCC(=O)O)c2C)cc1
input: Order the items by recorded Ki; the first position goes to the largest value. Output the labels ranked as instructed.
output: III, II, I
